test-summary: Plasmodium falciparum growth inhibition, primary screen, strain 3D7, DAPI fluorescence, 100 nL (AID 1184);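 note: parasites grown inside human red blood cells in medium with human serum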
condition-parameters: P. falciparum 3D7 growth, 3 d, higher = more signal
Outcome: 1 (yes) for z-score of at least -1; 0 (no) for anything lower.

[[record]]
compound = "Cc1c(NC(=O)/C(C#N)=C/c2ccc(Cl)cc2)c(=O)n(-c2ccccc2)n1C"
cat = "1 (yes)"

[[record]]
compound = "C=CCNC(=O)[C@H]1[C@@H]2C(=O)O[C@@H](c3ccccc3)[C@@H](c3ccccc3)N2[C@@H](c2ccccc2OCCO)[C@]12C(=O)N(C(=O)OCCOC)c1ccccc12"
cat = "0 (no)"

[[record]]
compound = "COCCCN1C(=O)[C@@]2(Cc3ccccc31)c1ccccc1C(=O)N(Cc1ccccc1OC)[C@H]2c1ccc(CO)cc1"
cat = "1 (yes)"

[[record]]
compound = "O=C1c2ccccc2[C@@]2(Cc3ccccc3N(Cc3ccccc3)C2=O)[C@H](c2ccc(CO)cc2)N1Cc1ccccc1"
cat = "1 (yes)"

[[record]]
compound = "CN(C)C(=O)[C@@]1(CCS(=O)(=O)c2ccccc2)N=C(c2ccc(OCCCO)cc2)O[C@H]1c1ccccc1N=[N+]=[N-]"
cat = "0 (no)"


Pending compound:
[ask] Check this compound for z-score at or above -1: O=C1C2C=CC(C(O)c3cccc(O)c3)N(Nc3ccccc3F)C2C(=O)N1c1ccccc1 (centres undefined)
[reply] 0 (no)

* * *

Listing: z-score of selected compounds
test-summary: PSAC antagonists in infected red cells, primary screen, cell-based, P. falciparum Indochina, OD700, 2 h (AID 1155);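 note: lysis reports solute entry through the parasite surface anion channel PSAC; channel blockers reduce lysis of infected cells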
condition-parameters: P. falciparum Indochina infected erythrocytes, osmotic lysis OD700; higher = more signal, called active from +8 up or from −8 down
Just the number, please.

Worked set:
[[record]]
compound = "COC(=O)[C@@]1(Cc2ccc(F)cc2)[C@H]2c3cc(C(=O)N(C)C)n(CCn4cc([N+](=O)[O-])nc4C)c3C[C@H]2CN1C(=O)c1ccccc1"
readout_kind = "z-score"
reported = 0.288

[[record]]
compound = "COc1ccc(NN2C(C(O)c3cc(C(F)(F)F)cc(C(F)(F)F)c3)C=CC3C(=O)N(C4CCCCC4)C(=O)C32)cc1 (centres undefined)"
readout_kind = "z-score"
reported = 0.507

[[record]]
compound = "CC(C)CNC(=O)[C@@H]1c2ccccc2C(=O)N(Cc2ccccc2Cl)[C@H]1c1ccc(CO)cc1"
readout_kind = "z-score"
reported = 0.526


Now, please, on to the next compound.
[ask] Could you share which z-score value was measured for `C=CCNC(=O)[C@H]1[C@@H]2C(=O)O[C@@H](c3ccccc3)[C@@H](c3ccccc3)N2[C@@H](c2ccc(O)cc2)[C@]12C(=O)Nc1ccc(C#CC3=CCCCC3)cc12` ?
[reply] 1.23

* * *

Test system: Noggin (protein binding on small-molecule microarray)
test-summary: Noggin binders on small-molecule microarray, primary screen, biochemical, 635/667 nm fluorescence (AID 1095);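 note: score merges 667 nm feature fluorescence with signal to noise over triplicate slides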
condition-parameters: 635 nm fluorescence, higher = more signal
readout-kind: composite z-score
Give only the figure.

[[record]]
compound = "CCOC(=O)C[C@H]1[C@H](OC(=O)c2ccc(-c3ccccc3)cc2)[C@@H](NC(=O)c2ccc3ccccc3c2)c2cc(OCCCO)ccc2N1C(=O)c1ccccc1"
reported = 0.382


[ask] Item `O=C1O[C@@H](c2ccccc2)[C@@H](c2ccccc2)N2[C@@H](c3ccc(O)cc3)[C@]3(C(=O)Nc4ccc(C#CC5=CCCCC5)cc43)[C@@H](C(=O)N3CCCCCCC3)[C@H]12` with Noggin (protein binding on small-molecule microarray) - composite z-score?
[reply] 1.16

[ask] Enter reported composite z-score observed with Noggin (protein binding on small-molecule microarray) for `C=CCOC(=O)[C@@H]1[C@H]2C(=O)O[C@H](c3ccccc3)[C@H](c3ccccc3)N2[C@H](c2ccc(OCCOC(=O)[C@H]3C[C@H]4C(=O)NCC(=O)N4[C@H]3c3ccc(O)cc3)cc2)[C@@]12C(=O)Nc1ccc(I)cc12`
[reply] 1.59

[ask] Provide the documented composite z-score with Noggin (protein binding on small-molecule microarray) as the system for O=C1OCCC=C[C@H]2OC34C=CCN(CCN5CCOCC5)C(=O)[C@H]3N(CCCO)C(=O)[C@@H]4C12 (stereo partly drawn)
[reply] -0.293

[ask] Record C=CCC(OC(C)=O)[C@@H]1[C@@H](N(Cc2cc3ccccc3o2)C(=O)c2ccc(-c3ccccc3)cc2)c2cc(OCCCO)ccc2N1C(=O)c1ccc2ccccc2n1 (stereo partly drawn) : what is its composite z-score with Noggin (protein binding on small-molecule microarray)?
[reply] 0.0917

[ask] Form entry - test system: Noggin (protein binding on small-molecule microarray); read-out: composite z-score; compound: `CCCC[C@@H]1C[C@H]1[C@@H](NC(=O)c1ccc(C(F)(F)F)cc1)c1ccc(C(=O)OC)cc1`
[reply] 0.747
